# PROCEDURE_DETAILS: Serum stability in FBS (RP-HPLC)
# Format: in vitro ADME
# TEST_CONTEXT: 25% fetal bovine serum; 25% FBS, 37 °C, peptide 80 µM, 5 h; RP-HPLC UV peak area; average of two assays; read-out: Peptide recovered after incubation with FBS
Residues, ends and D or L forms follow the SMILES beside them.
ASSAY_ENDPOINT: remaining at 5 h, 80 µM (%)
Your answer should be a plain number; it is taken to be in %.

I have this compound here, CC[C@H](C)[C@H](NC(=O)[C@H](CCCNC(=N)N)NC(=O)[C@H](CCCCN)NC(=O)[C@H](CC(N)=O)NC(=O)[C@H](C)NC(=O)[C@H](CC(C)C)NC(=O)[C@H](Cc1ccccc1)NC(=O)[C@H](CCCCN)NC(=O)[C@H](Cc1ccc(O)cc1)NC(=O)[C@H](Cc1c[nH]c2ccccc12)NC(=O)[C@H](CCC(=O)O)NC(=O)[C@H](CCCNC(=N)N)NC(=O)[C@H](CCCCN)NC(C)=O)C(=O)N[C@@H](C)C(=O)N[C@@H](Cc1ccc(O)cc1)C(N)=O [PSscan255] (Ac-KREWYKFLANKRIAY-NH2) , and I need its recorded remaining at 5 h, 80 µM.
80
